- Test system: IL-2-FL/Gaussia Luciferase
- Procedure Text: Dox Inducible IL2-FL-Gluc Assay
- Assay type: cell-based
- Reported Conditions: read-out: 24 hr Dox Inducible IL2FLGluc 293FRT/TO: Mean IC50; Flp-In 293 T-REx cells, 24 hours with doxycycline; Table 3
Measured Property: IC50

// solved cases for IC50 follow
Cc1sc(NC(=O)c2cccn2Cc2ccnc(F)c2)nc1/C=C/c1cn(C(C)C)cn1 [Compound B23] :: > 25 µM
O=C(Nc1nc(/C=C/c2ncoc2CO)cs1)c1cccn1Cc1ccnc(F)c1 [Compound B1] :: > 25 µM

For the next question, use this compound.
Input line: Fill in the recorded IC50 for this compound, with IL-2-FL/Gaussia Luciferase as test system: CC(C)n1cnc(F)c1/C=C/c1csc(NC(=O)c2cccn2Cc2ccnc(F)c2)n1 [Compound B2]
Output line: 6.64 µM

----------
- Test system: IL6R-ss+10aa/Gaussia Luciferase
- Procedure Text: Dox-induced IL-6R-ss-Gluc Assay
- Assay type: cell-based
- Reported Conditions: ratio of IC50s IL6R/PD1; Table 1
Exercise: state measured 24hr Dox Inducible IL6R(ss + 10)Gluc 293FRT/TO: IL6R/PD1 for each of the compounds provided.
Numbers only.

O=C(Nc1nc(/C=C/c2ncn(C3CC3)c2Cl)cs1)c1cc(O)cn1Cc1ccnc(F)c1 :: 19
CCOc1cc(C(=O)Nc2nc(/C=C/c3ncn(C4CC4)c3Cl)cs2)n(Cc2ccnc(F)c2)c1 :: 240

// next item, 24hr Dox Inducible IL6R(ss + 10)Gluc 293FRT/TO: IL6R/PD1 requested
Input line: Form: Entry = "COc1cc(C(=O)Nc2nc(/C=C/c3ncn(C(C)C)c3Cl)c(Cl)s2)n(Cc2ccnc(F)c2)c1" | System = IL6R-ss+10aa/Gaussia Luciferase | 24hr Dox Inducible IL6R(ss + 10)Gluc 293FRT/TO: IL6R/PD1 = ____
Output line: 28

----------
- System: multiple myeloma cell line NCI-H929
- Procedure Text: H929 Cell Viability Assay
- Type: cell-based, human
- Reported Conditions: Homo sapiens; NCI-H929 cells, 48 hours, Celltiter-Glo; read-out: 48 hr H929 Viability Celltiter-Glo: Mean EC50
- Procedure: The human multiple myeloma cell line NCI-H929 was cultured in Advanced RPMI 1640 media (Gibco®) supplemented with 6% fetal bovine serum, 2 mM Glutamine, and 1× Penicillin/Streptomycin. […] After 48 hours, Celltiter-Glo® (Promega) was added to each well and luciferase signal was quantified using Tecan Infinite M1000 Pro for cell viability determination. […]
pEC50: −log10 of the molar value.
Measured Property: pEC50

O=C(Nc1nc(/C=C/C2CCOC2)cs1)c1cccn1Cc1ccnc(F)c1 (centres unmarked) :: < 4.60
O=C(Nc1nc(/C=C/c2ncn(C3CC3)c2Cl)cs1)c1cc(C(F)F)cn1Cc1ccnc(F)c1 :: < 4.60
C/C(=C\c1cn(C(C)C)cn1)c1csc(NC(=O)c2cccn2Cc2ccnc(F)c2)n1 :: 4.87
COc1cc(C(=O)Nc2nc(/C(F)=C/c3cn(C(C)C)cn3)cs2)n(Cc2ccnc(F)c2)c1 :: < 4.60
CC(=O)N[C@H]1CC[C@H](/C=C/c2csc(NC(=O)c3cccn3Cc3ccncc3)n2)CC1 :: 5.29
Cc1cnc(F)c(C)c1Cn1cc(OC(F)F)cc1C(=O)Nc1nc(/C=C/c2ncn(C3CC3)c2Cl)cs1 :: < 4.60

Give pEC50 for each listed item.
1. O=C(Nc1nc(/C=C/c2ccc(C(F)(F)F)cn2)cs1)c1cccn1Cc1ccnc(F)c1
2. COc1cc(C(=O)Nc2nc(/C=C/c3ncn(C(C)C)c3Cl)c(CO)s2)n(Cc2ccnc(F)c2F)c1

Output line:
1. < 4.60
2. < 4.60

----------
- Test system: IL-2-FL/Gaussia Luciferase
- Procedure Text: Dox Inducible IL2-FL-Gluc Assay
- Assay type: cell-based
- Reported Conditions: ratio of IC50s IL2/PD1; Table 1
Measured Property: 24 hr Dox Inducible IL2FLGluc 293FRT/TO: IL2/PD1

N#Cc1ccc(/C=C/c2csc(NC(=O)c3cccn3Cc3ccnc(F)c3)n2)nc1 [Compound B13] :: >500
O=C(Nc1nc(/C=C/c2cn(C(F)F)cn2)cs1)c1cc(Cl)cn1Cc1ccnc(F)c1 [Compound A5] :: >57

Now let's try a different one.
Input line: Given the molecule CC(=O)N[C@H]1CC[C@@H](/C=C/c2csc(NC(=O)c3cccn3Cc3ccncc3)n2)CC1 [Compound B15] , what is its reported 24 hr Dox Inducible IL2FLGluc 293FRT/TO: IL2/PD1?
Output line: >2.1

----------
- Test system: PD1-ss+10aa/Gaussia Luciferase
- Procedure Text: Dox-Induced PD1-ss-Gluc Assay
- Assay type: cell-based
- Reported Conditions: Flp-In 293 T-REx cells, 24 hours with doxycycline; Table 1; read-out: 24 hr Dox Inducible PD1ssGluc 293FRT/TO: Mean IC50
Measured Property: log10 IC50 (log10 of the value in nM)
Kindly note that the scale is log10 and the underlying IC50 is in nM.

These recorded examples may help you get a feel for the data.
N#Cc1ocnc1/C=C/c1csc(NC(=O)c2cccn2Cc2ccnc(F)c2)n1 [Compound B19] :: 2.50
Cc1cnc(F)c(C)c1Cn1cc(OC(F)F)cc1C(=O)Nc1nc(/C=C/c2ncn(C3CC3)c2Cl)cs1 [Compound A26] :: 2.94
N#Cc1c(/C=C/c2csc(NC(=O)c3cc(Cl)cn3Cc3ccnc(F)c3)n2)ncn1C1CC1 [Compound A28] :: 1.34
[2H]C([2H])(c1ccnc(F)c1)n1cc(OC)cc1C(=O)Nc1nc(/C=C/c2ncn(C3CC3)c2Cl)cs1 [Compound A14] :: 0.85
N[C@H]1CC[C@@H](/C=C/c2csc(NC(=O)c3cccn3Cc3ccncc3)n2)CC1 [Compound B16] :: 3.91

Return reported log10 IC50 values for all items listed beneath this line.
1. CC(C)n1cnc(/C=C/c2csc(NC(=O)c3cc(Cl)cn3Cc3ccnc(F)c3)n2)c1C(F)(F)F [Compound A10]
2. [2H]C([2H])(c1ccnc(F)c1)n1cc(Cl)cc1C(=O)Nc1nc(/C=C/c2ncn(C3CC3)c2Cl)cs1 [Compound A11]
3. O=C(Nc1nc(/C=C/c2ncn(C3CC3)c2Cl)cs1)c1cc(O)cn1Cc1ccnc(F)c1 [Compound A18]

Output line:
1.04
1.04
2.47

----------
Give 24 hr Dox Inducible IL2FLGluc 293FRT/TO: IL2/PD1 for every item shown.
- Test system: IL-2-FL/Gaussia Luciferase
- Procedure Text: Dox Inducible IL2-FL-Gluc Assay
- Assay type: cell-based
- Reported Conditions: ratio of IC50s IL2/PD1; Table 3

O=C1CCn2cc(/C=C/c3csc(NC(=O)c4cccn4Cc4ccnc(F)c4)n3)nc2N1 [Compound B3] :: >39
Cc1sc(NC(=O)c2cccn2Cc2ccnc(F)c2)nc1/C=C/c1cn(C(C)C)cn1 [Compound B23] :: >420
C/C(=C\c1cn(C(C)C)cn1)c1csc(NC(=O)c2cccn2Cc2ccnc(F)c2)n1 [Compound B24] :: >46
O=C(Nc1nc(/C=C/c2ncoc2CO)cs1)c1cccn1Cc1ccnc(F)c1 [Compound B1] :: >2.8
O=C(Nc1nc(/C=C/c2ccc(OC(F)F)cn2)cs1)c1cccn1Cc1ccnc(F)c1 [Compound B4] :: 130
C/C(=C\c1cn(C(C)C)cn1)c1csc(NC(=O)c2cccn2Cc2ccncc2)n1 [Compound B25] :: >62
O=C(Nc1nc(/C=C/[C@H]2CC[C@@H](C(F)(F)F)CC2)cs1)c1cccn1Cc1ccncc1 [Compound B9] :: 5

# input for lookup
Input line: Quick one: 24 hr Dox Inducible IL2FLGluc 293FRT/TO: IL2/PD1 for CC(C)n1cnc(F)c1/C=C/c1csc(NC(=O)c2cccn2Cc2ccnc(F)c2)n1 [Compound B2] ?
Output line: 2

----------
- Procedure Text: Liver Microsome Stability Assay, rat
- Format: in vitro ADME
- Reported Conditions: rat liver microsomes 1.0 mg/mL, 1.0 uM compound, 37° C., 1 mM NADPH
Measured Property: Liver Microsome Stability (Multiple Species): Rat - % Remaining after 30 min w/ NADPH (%)
Numbers only, in %.

Record excerpt, results attached:
O=C(Nc1nc(/C=C/c2cn(C(F)(F)F)cn2)cs1)c1cc(Cl)cn1Cc1ccnc(F)c1 [Compound A3] :: 21
CN[C@H]1CC[C@H](/C=C/c2csc(NC(=O)c3cccn3Cc3ccncc3)n2)CC1 [Compound B12] :: 12
CN[C@H]1CC[C@@H](/C=C/c2csc(NC(=O)c3cccn3Cc3ccncc3)n2)CC1 [Compound B11] :: 32
CC(C(F)F)n1cnc(/C=C/c2csc(NC(=O)c3cc(Cl)cn3Cc3ccnc(F)c3)n2)c1 (stereo not drawn) [Compound A4] :: 73
COc1cc(C(=O)Nc2nc(/C=C/c3ncn(C4CC4)c3Cl)cs2)n(Cc2ccnc(F)c2F)c1 [Compound A20] :: 41
O=C(Nc1nc(/C=C/c2ncn(C3CC3)c2Cl)cs1)c1cc(C(F)F)cn1Cc1ccnc(F)c1 [Compound A29] :: 1
COc1cc(C(=O)Nc2nc(/C=C/c3ncn(C(C)C)c3Cl)c(CO)s2)n(Cc2ccnc(F)c2F)c1 [Compound A21] :: 59
O=C(Nc1nc(/C=C/c2ccc3occc3c2)cs1)c1cccn1Cc1ccnc(F)c1 [Compound B27] :: 3
O=C(Nc1nc(/C=C/c2ccc(Cl)cn2)cs1)c1cccn1Cc1ccnc(F)c1 [Compound B8] :: 1
CC(=O)N[C@H]1CC[C@H](/C=C/c2csc(NC(=O)c3cccn3Cc3ccncc3)n2)CC1 [Compound B17] :: 17

The following molecules each have a reported value; give each one's Liver Microsome Stability (Multiple Species): Rat - % Remaining after 30 min w/ NADPH (%).
1. Cc1cnc(F)c(C)c1Cn1cc(OC(F)F)cc1C(=O)Nc1nc(/C=C/c2ncn(C3CC3)c2Cl)cs1 [Compound A26]
2. CC(C)n1cnc(/C=C/c2csc(NC(=O)c3cc(Cl)cn3Cc3ccnc(F)c3)n2)c1Cl [Compound A1]
3. CC(=O)N[C@H]1CC[C@@H](/C=C/c2csc(NC(=O)c3cccn3Cc3ccncc3)n2)CC1 [Compound B15]
4. [2H]C([2H])([2H])Oc1cc(C(=O)Nc2nc(/C=C/c3ncn(C4CC4)c3Cl)cs2)n(Cc2ccnc(F)c2F)c1 [Compound A22]
5. O=C(Nc1nc(/C=C/c2ncn(C3CC3)c2Cl)cs1)c1cc(O)cn1Cc1ccnc(F)c1 [Compound A18]
6. Cc1sc(NC(=O)c2cccn2Cc2ccnc(F)c2)nc1/C=C/c1cn(C(C)C)cn1 [Compound B23]
7. [2H]C([2H])(c1ccnc(F)c1)n1cc(OC(F)F)cc1C(=O)Nc1nc(/C=C/c2ncn(C3CC3)c2Cl)cs1 [Compound A16]
8. CCOc1cc(C(=O)Nc2nc(/C=C/c3ncn(C4CC4)c3Cl)cs2)n(Cc2ccnc(F)c2)c1 [Compound A17]

Output line:
1: 40; 2: 82; 3: 1; 4: 33; 5: 10; 6: 19; 7: 56; 8: 2

Need Liver Microsome Stability (Multiple Species): Rat - % Remaining after 30 min w/ NADPH (%) for each of these molecules.
1. O=C(Nc1nc(/C=C/c2ccc(OC(F)F)cn2)cs1)c1cccn1Cc1ccnc(F)c1 [Compound B4]
2. N[C@H]1CC[C@H](/C=C/c2csc(NC(=O)c3cccn3Cc3ccncc3)n2)CC1 [Compound B18]
3. N#Cc1ocnc1/C=C/c1csc(NC(=O)c2cccn2Cc2ccnc(F)c2)n1 [Compound B19]
4. O=C(Nc1nc(/C=C/C2CCOC2)cs1)c1cccn1Cc1ccnc(F)c1 (stereo not drawn) [Compound B22]

Output line:
[1, 6, 1, 1]
